Origin of values: patent US20250051391A1

experimental target: T1, Charged multivesicular body protein 2B (CHMP2B), full length, purified (human, UniProt Q9UQN3 2-213)
T1 construct: mature; not shown: tag from the pET-DEST42 vector used for Ni-NTA purification
T1 sequence (Q9UQN3 2-213): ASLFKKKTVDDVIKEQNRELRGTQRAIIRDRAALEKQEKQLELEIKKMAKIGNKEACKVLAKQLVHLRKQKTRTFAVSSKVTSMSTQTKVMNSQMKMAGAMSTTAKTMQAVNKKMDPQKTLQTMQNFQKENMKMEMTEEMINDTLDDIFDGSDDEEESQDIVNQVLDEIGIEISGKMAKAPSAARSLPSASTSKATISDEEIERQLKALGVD
procedure details: fluorescence polarization, 50 nM FITC-peptide, CHMP2B titrated
Ends that are not written are not given here. * marks the point of attachment. FITC = O=C1OC2(c3ccc(O)cc3Oc3cc(O)ccc32)c2ccc(NC(=S)*)cc21
parameter: Kd (nM)

[[record]]
binder = "{FITC}-DEEIERQLKALG (Synthetic peptide (LifeTein) with an N-terminal FITC moiety, used in the fluorescence polarization assays; also called DPpep1.3; FITC-Pdpep1.3) [FITC-labeled PDpep1.3 peptide DEEIERQLKALG]"
unit_abbrev = "nM"
value_measured = 1800

